# assayInfo: Selectivity index, ratio of CC50 for mock-infected MT4 cells to EC50 for HIV1 3B
# Format: functional
Entries and their Ratio CC50/EC50

Cc1cc(N2C(=O)CSC2c2c(F)cccc2Cl)nc(C)n1 (stereo not given) :: 11
Cc1cc(N2C(=O)CSC2c2c(F)cccc2F)nc(C)n1 (stereo not given) :: 11
O=C1CSC(c2c(F)cccc2Cl)N1c1nc(-c2ccccc2)cc(-c2ccccc2)n1 (stereo not given) :: <1

Using the record for O=C1CSC(c2c(Cl)cccc2Cl)N1c1nc(-c2ccccc2)cc(C(F)(F)F)n1 (stereo not given) , report its Ratio CC50/EC50.
<1

Using the record for Fc1cccc(F)c1C1SCc2nc3ccccc3n21 (stereo not given) [THIAZOLOBENZIMIDAZOLE] , report its Ratio CC50/EC50.
54.5

Using the record for Cc1cc(C(F)(F)F)nc(N2C(=O)CSC2c2c(F)cccc2Cl)n1 (stereo not given) , report its Ratio CC50/EC50.
13

Using the record for O=C1CSC(c2c(F)cccc2F)N1c1nc(-c2ccccc2)cc(C(F)(F)F)n1 (stereo not given) , report its Ratio CC50/EC50.
<1

Using the record for O=C1CSC(c2c(F)cccc2F)N1c1nc(-c2ccccc2)cc(-c2ccccc2)n1 (stereo not given) , report its Ratio CC50/EC50.
<1

Using the record for O=C1CSC(c2c(F)cccc2Cl)N1c1nc(-c2ccccc2)cc(C(F)(F)F)n1 (stereo not given) , report its Ratio CC50/EC50.
9

Using the record for Cc1cc(N2C(=O)CSC2c2c(Cl)cccc2Cl)nc(C)n1 (stereo not given) , report its Ratio CC50/EC50.
10

====

# experimentalTarget: UniProtKB Q72547
# assayInfo: Inhibition of HIV1 reverse transcriptase at 100 ug/ml
Entry flag: Satisfied if inhibition reaches 70%; Not satisfied if it does not.

Does inhibition meet or surpass 70% for Cc1cc(-c2ccccc2)nc(N2C(=O)CSC2c2c(F)cccc2Cl)n1 (stereo not drawn) ?
Satisfied

Does inhibition meet or surpass 70% for O=C1CSC(c2c(F)cccc2Cl)N1c1nc(-c2ccccc2)cc(-c2ccccc2)n1 (stereo not drawn) ?
Not satisfied

====

# assayInfo: Selectivity index, ratio of CC50 for mock-infected MT4 cells to EC50 for HIV1 3B
# Format: functional
Entry flag: TRUE if Ratio CC50/EC50 reaches 20; FALSE if it does not.

Does Ratio CC50/EC50 meet or surpass 20 for Clc1cccc(Cl)c1C1SCc2nc3ccccc3n21 (stereo not drawn) ?
FALSE

Does Ratio CC50/EC50 meet or surpass 20 for O=C1CSC(c2c(Cl)cccc2Cl)N1c1nc(-c2ccccc2)cc(-c2ccccc2)n1 (stereo not drawn) ?
FALSE

Does Ratio CC50/EC50 meet or surpass 20 for Cc1cc(-c2ccccc2)nc(N2C(=O)CSC2c2c(Cl)cccc2Cl)n1 (stereo not drawn) ?
FALSE

Does Ratio CC50/EC50 meet or surpass 20 for Cc1cc(-c2ccccc2)nc(N2C(=O)CSC2c2c(F)cccc2F)n1 (stereo not drawn) ?
FALSE

Does Ratio CC50/EC50 meet or surpass 20 for Cc1nc(N2C(=O)CSC2c2c(F)cccc2F)nc(C)c1C (stereo not drawn) ?
TRUE

Does Ratio CC50/EC50 meet or surpass 20 for Cc1cc(C(F)(F)F)nc(N2C(=O)CSC2c2c(F)cccc2F)n1 (stereo not drawn) ?
TRUE

Does Ratio CC50/EC50 meet or surpass 20 for Cc1cc(C(F)(F)F)nc(N2C(=O)CSC2c2c(Cl)cccc2Cl)n1 (stereo not drawn) ?
TRUE

Does Ratio CC50/EC50 meet or surpass 20 for Cc1cc(-c2ccccc2)nc(N2C(=O)CSC2c2c(F)cccc2Cl)n1 (stereo not drawn) ?
TRUE
